SYSTEM: PIKFYVE (Homo sapiens, UniProt Q9Y2I7)
Sequence (Q9Y2I7 whole entry): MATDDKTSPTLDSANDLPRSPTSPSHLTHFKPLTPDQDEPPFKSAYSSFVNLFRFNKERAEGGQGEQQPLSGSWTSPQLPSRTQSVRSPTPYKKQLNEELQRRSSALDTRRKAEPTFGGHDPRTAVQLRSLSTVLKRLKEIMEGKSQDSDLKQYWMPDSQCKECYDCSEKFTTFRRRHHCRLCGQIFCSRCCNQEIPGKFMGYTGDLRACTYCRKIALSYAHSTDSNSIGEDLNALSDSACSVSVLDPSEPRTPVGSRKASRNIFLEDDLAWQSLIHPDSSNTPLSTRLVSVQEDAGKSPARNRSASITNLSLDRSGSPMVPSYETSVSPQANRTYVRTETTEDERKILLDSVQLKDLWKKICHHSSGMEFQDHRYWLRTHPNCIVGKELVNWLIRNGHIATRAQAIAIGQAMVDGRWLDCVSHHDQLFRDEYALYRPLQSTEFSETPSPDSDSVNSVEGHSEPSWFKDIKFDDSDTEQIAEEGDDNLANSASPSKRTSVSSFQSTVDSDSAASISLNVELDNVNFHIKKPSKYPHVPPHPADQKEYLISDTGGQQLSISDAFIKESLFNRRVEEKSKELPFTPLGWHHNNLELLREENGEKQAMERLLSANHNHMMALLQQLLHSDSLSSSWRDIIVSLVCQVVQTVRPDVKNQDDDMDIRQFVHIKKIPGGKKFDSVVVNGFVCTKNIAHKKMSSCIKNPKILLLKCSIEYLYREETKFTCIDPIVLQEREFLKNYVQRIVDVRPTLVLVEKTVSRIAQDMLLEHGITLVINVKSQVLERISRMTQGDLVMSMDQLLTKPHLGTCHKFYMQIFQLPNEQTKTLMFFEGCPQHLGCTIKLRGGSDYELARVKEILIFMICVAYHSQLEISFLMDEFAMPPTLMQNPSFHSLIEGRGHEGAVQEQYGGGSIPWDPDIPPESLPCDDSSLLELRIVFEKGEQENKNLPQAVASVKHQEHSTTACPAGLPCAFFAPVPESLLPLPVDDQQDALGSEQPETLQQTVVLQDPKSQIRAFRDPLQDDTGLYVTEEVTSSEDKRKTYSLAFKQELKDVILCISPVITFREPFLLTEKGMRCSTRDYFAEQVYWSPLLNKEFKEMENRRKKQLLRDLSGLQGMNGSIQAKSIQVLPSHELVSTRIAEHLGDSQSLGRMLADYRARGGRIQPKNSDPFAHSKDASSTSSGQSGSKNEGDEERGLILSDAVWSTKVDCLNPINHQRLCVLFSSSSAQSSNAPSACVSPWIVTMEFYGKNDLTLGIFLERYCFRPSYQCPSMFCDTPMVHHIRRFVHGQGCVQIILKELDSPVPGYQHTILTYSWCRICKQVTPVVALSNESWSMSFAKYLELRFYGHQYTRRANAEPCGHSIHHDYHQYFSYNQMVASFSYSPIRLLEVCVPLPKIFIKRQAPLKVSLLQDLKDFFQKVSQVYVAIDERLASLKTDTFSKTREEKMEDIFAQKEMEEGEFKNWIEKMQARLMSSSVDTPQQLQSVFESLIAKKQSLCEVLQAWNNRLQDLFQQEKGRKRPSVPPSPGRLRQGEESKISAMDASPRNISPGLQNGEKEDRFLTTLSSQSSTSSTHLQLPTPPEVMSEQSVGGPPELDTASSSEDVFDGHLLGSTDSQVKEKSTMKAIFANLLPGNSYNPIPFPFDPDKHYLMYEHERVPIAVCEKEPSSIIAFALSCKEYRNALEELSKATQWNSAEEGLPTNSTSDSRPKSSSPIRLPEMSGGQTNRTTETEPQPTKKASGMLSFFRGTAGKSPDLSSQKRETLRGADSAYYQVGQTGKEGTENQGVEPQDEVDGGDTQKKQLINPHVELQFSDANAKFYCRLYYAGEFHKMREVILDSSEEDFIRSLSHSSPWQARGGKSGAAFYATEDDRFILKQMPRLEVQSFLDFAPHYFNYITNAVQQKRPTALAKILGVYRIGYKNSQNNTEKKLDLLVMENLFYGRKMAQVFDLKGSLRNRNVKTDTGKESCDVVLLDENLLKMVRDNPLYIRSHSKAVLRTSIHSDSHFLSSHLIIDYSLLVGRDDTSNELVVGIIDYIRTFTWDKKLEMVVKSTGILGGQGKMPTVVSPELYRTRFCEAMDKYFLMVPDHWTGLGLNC
ASSAY_NAME: PIKFYVE assay (luciferase ADP-Glo kinase assay, Promega)
Format: biochemical
TEST_SETTINGS: Table 3
Reported IC50 is given for each of the following molecules.
OBSERVATION_TYPE: IC50

MOLECULE | OBSERVATION_TYPE | RESULT
CO[C@H](CO)c1nc(N2CCO[C@H](C)C2)cc(-n2ccc(-c3cccc(C)c3)n2)n1 (single isomer, unassigned) | IC50 | 10 to 100 nM
Cc1cccc(-c2ccn(-c3cc(N4CCOCC4)nc(OCCc4sc(C)nc4C)n3)n2)c1 | IC50 | 3 to 10 nM
Cn1cc(CCOc2nc(N3CCOCC3)cc(-n3ccc(COc4ccccc4)n3)n2)cn1 | IC50 | 3 to 10 nM
Cc1ccccc1-c1ccn(-c2cc(N3CCOCC3)nc(OCCc3cnn(C)c3)n2)n1 | IC50 | 10 to 100 nM
